# System: alkaline phosphatase (ALP) activity in C2C12 cells
# Type: cell-based
# Conditions: assay number 6; concentration response

| Compound | Readout Qualifier | WntCondMedia_Alk Phos C2C12 IC50/EC50 [µM] |
| --- | --- | --- |
| COc1ccc2cc1Oc1ccc(cc1)C[C@H]1c3c(cc4c(c3Oc3cc5c(cc3OC)CCN(C)[C@@H]5C2)OCO4)CCN1C | = | 2.0494 |
| C[C@@]12C(=O)OC(=O)[C@]1(C)C1CCC2O1 | = | 1.4897 |
| COc1cc(NCc2ccc3nc(N)nc(N)c3c2C)cc(OC)c1OC | > | 20 |
| CCCCCCCCCCCCCC[N+](C)(C)C.[Br-] | > | 20 |
| Cc1nc(N)nc(N)c1-c1ccc(Cl)c(Cl)c1 | = | 0.0299 |
| CCCN(CCC)C(=O)C(CCC(=O)OCCCN1CCN(CCOC(=O)Cc2c(C)n(C(=O)c3ccc(Cl)cc3)c3ccc(OC)cc23)CC1)NC(=O)c1ccccc1 (stereo not shown) | = | 13.2162 |
| CC[C@]1(O)C[C@H]2CN(CCc3c([nH]c4ccccc34)[C@@](C(=O)OC)(c3cc4c(cc3OC)N(C=O)[C@H]3[C@@](O)(C(=O)OC)[C@H](OC(C)=O)[C@]5(CC)C=CCN6CC[C@]43[C@@H]65)C2)C1 | = | 0.0051 |

* * *

# EC50 per entry
# System: nuclear β-catenin in C2C12 cells
# Method Description: cells
# Format: cell-based
# Conditions: IC50 / EC50; C2C12 beta-catenin translocation; read-out: Wnt Pathway

| Compound | Readout Qualifier | EC50 / nM |
| --- | --- | --- |
| Cc1cc(O)c2ccccc2c1O | = | 1750 |
| O=C(c1cc(O)c(O)c(O)c1)c1ccc(O)c(O)c1O [Hexahydro-2,3,4,3',4',5'-benzophenone] | > | 10000 |
| O=C(CCl)c1ccc(Cl)cc1Cl | = | 373 |
| O=[N+]([O-])c1ccc(Oc2ccc(N=C=S)cc2)cc1 | > | 10000 |

* * *

Catalogue of Basal_Viability ATP DLD-1 IC50/EC50 readings, one per entry.
# Test system: DLD-1
# Method Description: cells
# Format: cell-based
# Conditions: assay number 23; basal

| Compound | Basal_Viability ATP DLD-1 IC50/EC50 |
| --- | --- |
| Cl.NC1=NCC2c3ccccc3Cc3ccccc3N12 (centres unmarked) [NCGC00165791-04] | > 20 µM |
| O=C(CCCN1CCC(O)(c2cccc(C(F)(F)F)c2)CC1)c1ccc(F)cc1 [NCGC00015983-04] | > 20 µM |
| CN(C)CCOC(c1ccccc1)c1ccc(Br)cc1 (centres unmarked) [NCGC00249891-01] | > 20 µM |
| CCN(CC)CCOc1ccc(C(O)(Cc2ccc(Cl)cc2)c2ccc(C)cc2)cc1 (centres unmarked) [NCGC00165907-03] | > 20 µM |
| CC(=O)N(CC(O)CN(C(C)=O)c1c(I)c(C(=O)NCC(O)CO)c(I)c(C(=O)NCC(O)CO)c1I)c1c(I)c(C(=O)NCC(O)CO)c(I)c(C(=O)NCC(O)CO)c1I (centres unmarked) [NCGC00179408-03] | > 20 µM |
| Cc1cc(=O)c2c(O)c3c(O)cc(=O)c4c3c3c(cc(O)c1c23)C(C)(C)C=4O [NCGC00160275-03] | 0.07089 µM |
| CCCCCCCCCCCCCCCCC(C(=O)O)C(O)(CC(=O)O)C(=O)O (centres unmarked) [NCGC00167547-02] | 4.2832 µM |
| O=C(O)C1(C(=O)O)CCC1.[NH2-].[NH2-].[Pt+2] [NCGC00263858-02] | > 20 µM |
